Source listed as paper PMC10254843.

- protocol.summary: Half-wave potentials by cyclic voltammetry
- Format: physicochemical
- stated.conditions: acetonitrile, platinum electrode, room temperature, negative of the potential
quantity.name: −E^I½ (mV)
Report the figure in mV without appending any unit label.

# smiles.notation, quantity.unit, measured
measured = [
    ("O=C(C1=C(Nc2ccccc2)C(=O)c2ccccc2C1=O)c1ccc[nH]1", "mV", 685),
    ("CCCCCCCCCC(=O)C1=C(Nc2ccccc2)C(=O)c2ccccc2C1=O", "mV", 480),
    ("COc1cc(C(=O)C2=C(Nc3ccccc3)C(=O)c3ccccc3C2=O)ccc1O", "mV", 595),
    ("O=C(C1=C(Nc2ccccc2)C(=O)c2ccccc2C1=O)c1ccco1", "mV", 578),
]

State, in one line, measured −E^I½ (mV) of O=C(C1=C(Nc2ccccc2)C(=O)c2ccccc2C1=O)c1ccsc1
635

State, in one line, measured −E^I½ (mV) of O=C(C1=C(Nc2ccccc2)C(=O)c2ccccc2C1=O)c1cccs1
552

State, in one line, measured −E^I½ (mV) of Cc1ccc(C(=O)C2=C(Nc3ccccc3)C(=O)c3ccccc3C2=O)cc1
770

State, in one line, measured −E^I½ (mV) of COc1cc(C(=O)C2=C(Nc3ccccc3)C(=O)c3ccccc3C2=O)cc(OC)c1OC
690

* * *

- Test system: DU-145 (prostate cancer cells)
- protocol.summary: MTT cell survival assay, DU-145 prostate cancer cells
- Assay type: cell-based
- stated.conditions: Homo sapiens, MTT test, cells incubated at 37 °C for 48 h (Table 1 footnote), mean ± SEM, n = 3
Each record here notes measured IC50.
Report the figure in µM without appending any unit label.

Worked cases, answers included:
# smiles.notation, quantity.name, quantity.unit, measured
data = [
    ("COc1cc(C(=O)C2=C(Nc3ccccc3)C(=O)c3ccccc3C2=O)cc(OC)c1OC", "IC50", "µM", 11.7),
    ("COc1cc(C(=O)C2=C(Nc3ccccc3)C(=O)c3ccccc3C2=O)ccc1O", "IC50", "µM", 12.5),
    ("O=C(C1=C(Nc2ccccc2)C(=O)c2ccccc2C1=O)c1ccsc1", "IC50", "µM", 8.91),
    ("O=C(C1=C(Nc2ccccc2)C(=O)c2ccccc2C1=O)c1ccc[nH]1", "IC50", "µM", 14.5),
    ("COc1cccc(C(=O)C2=C(Nc3ccccc3)C(=O)c3ccccc3C2=O)c1", "IC50", "µM", 10.2),
    ("COc1ccc(C(=O)C2=C(Nc3ccccc3)C(=O)c3ccccc3C2=O)cc1", "IC50", "µM", 19.5),
    ("Cc1ccc(C(=O)C2=C(Nc3ccccc3)C(=O)c3ccccc3C2=O)cc1", "IC50", "µM", 11.1),
]

# input for lookup
State, in one line, measured IC50 of COc1ccc(C(=O)C2=C(Nc3ccccc3)C(=O)c3ccccc3C2=O)cc1OC
11.9

* * *

Each record here notes measured MSI (mean selective index).
- Tested on: HEK-293 cells/tumour cells
- protocol.summary: Mean selective index, HEK-293 vs tumour cells
- Type: cell-based, human
- stated.conditions: MSI = IC50 values HEK-293 cells/IC50 values tumour cells
Reply: number alone, nothing else.

Worked cases, answers included:
# compound, measurement.target, MSI (mean selective index)
rows = [
    ("COc1cc(C(=O)C2=C(Nc3ccccc3)C(=O)c3ccccc3C2=O)cc(OC)c1OC", "HEK-293 cells/tumour cells", 4.7),
    ("O=C(C1=C(Nc2ccccc2)C(=O)c2ccccc2C1=O)c1ccc[nH]1", "HEK-293 cells/tumour cells", 0.9),
    ("COc1ccc(C(=O)C2=C(Nc3ccccc3)C(=O)c3ccccc3C2=O)cc1OC", "HEK-293 cells/tumour cells", 6.4),
    ("COc1ccc(C(=O)C2=C(Nc3ccccc3)C(=O)c3ccccc3C2=O)cc1", "HEK-293 cells/tumour cells", 2.6),
    ("COc1cc(C(=O)C2=C(Nc3ccccc3)C(=O)c3ccccc3C2=O)ccc1O", "HEK-293 cells/tumour cells", 4.5),
    ("O=C(C1=C(Nc2ccccc2)C(=O)c2ccccc2C1=O)c1ccccc1", "HEK-293 cells/tumour cells", 6.2),
    ("CCCCCC(=O)C1=C(Nc2ccccc2)C(=O)c2ccccc2C1=O", "HEK-293 cells/tumour cells", 1.1),
    ("Cc1ccc(C(=O)C2=C(Nc3ccccc3)C(=O)c3ccccc3C2=O)cc1", "HEK-293 cells/tumour cells", 5.0),
    ("CCCCCCCCCCCC(=O)C1=C(Nc2ccccc2)C(=O)c2ccccc2C1=O", "HEK-293 cells/tumour cells", 1.0),
    ("O=C(C1=C(Nc2ccccc2)C(=O)c2ccccc2C1=O)c1cccs1", "HEK-293 cells/tumour cells", 3.3),
]

State, in one line, measured MSI (mean selective index) of COc1cccc2c1C(=O)c1c(O)c3c(c(O)c1C2=O)C[C@@](O)(C(=O)CO)C[C@@H]3O[C@H]1C[C@H](N)[C@H](O)[C@H](C)O1 [DOX, Doxorubicin, reference compound]
7.5
